- System: HEK-293T
- experiment-summary: Incucyte cell viability with HEK293T; note: filed as whole numbers so only -1 and 0 and 1 occur
- Assay type: toxicity, cell-based
- condition-context: human, 6 h, 10 µM, compound concentration 10 uM, replicate number 2, timepoint 6 hours
quantity-name: Growth Rate
Number only, please.

Answered examples (8):
compound: CCc1cc2c(c(CC)n1)CCC(=O)N2Cc1ccc(-c2ccccc2-c2nnn[nH]2)cc1.Cl
observed-value: 0

compound: CCC(=O)N1CC[C@H](Nc2ncnc3c2CN(c2cnc(OC)c(C(F)(F)F)c2)CC3)C1
observed-value: 0

compound: CCCCc1nc2ccc(NC(=O)NC3CCCCC3)cc2n1Cc1ccc(-c2ccccc2C(=O)O)cc1
observed-value: 1

compound: CC(C)CC(=O)N1CCc2nc(-c3ccc(Br)cc3)nc(N(C)Cc3ccccc3)c2C1
observed-value: 0

compound: Cn1cc(-c2ccc3occ(-c4ccccc4-c4ccccc4)c3n2)cn1
observed-value: 1

compound: CN(C)C(=O)Cn1cc(-c2nc(C3(c4ccc(-c5cnc(N)nc5)cc4)CC3)no2)cn1
observed-value: 1

compound: Cc1cnc(-c2cc(Cl)ccc2F)cc1-n1c(=O)n(CC(N)=O)c2cnccc21
observed-value: 1

compound: Cc1cc(C(=O)N2Cc3cnn(C)c3Nc3ccccc32)ccc1CNC(=O)N1CCC[C@H]1C(=S)N1CCCN(C)CC1
observed-value: 1

Kindly state the measured Growth Rate obtained for COc1cccc(OC)c1-c1cc(C(=O)NC2(C(=O)O)C3CC4CC(C3)CC2C4)nn1-c1ccnc2cc(Cl)ccc12 (stereo not drawn) with HEK-293T.
1

Checklist item: Growth Rate tested on HEK-293T, entry C[C@@H](NCCc1ccc(O)cc1)[C@@H](O)c1ccc(O)cc1.Cl (relative stereo) , value?
1

Find Growth Rate (HEK-293T) for the entry "CS(=O)(=O)c1cc(C2(NC(=O)c3cncc4c3cnn4-c3ccc(F)cc3)CC2)ccn1"
0

Entry "CCCCc1nc(Cl)c(CO)n1Cc1ccc(-c2ccccc2-c2nn[nH]n2)cc1" , system HEK-293T: what Growth Rate was measured?
0

Record lookup: for HEK-293T, what Growth Rate belongs to "O=C(Nc1cccnc1)c1cc(-c2ccnc(F)c2)ccc1OCc1ccccc1" ?
1

Short answer please: Growth Rate, HEK-293T, entry "CC(=O)N1CCC(c2ccc(C(=O)NC3=NCCN3)cc2C(F)(F)F)CC1"
0

Return Growth Rate measured with HEK-293T given this compound: "Nc1nc2c(c(N3CCNCC3)n1)CCC1=C2[C@@H]2CCCC[C@@H]2O1"
0

Please tell me: Growth Rate of "Oc1ccc(-c2nc3cc(O)cc(Br)c3o2)cc1" , system HEK-293T?
1

Provide the documented Growth Rate with HEK-293T as the system for CC(C)NCC(O)c1ccc(N)c(C#N)c1 (stereo not drawn)
1

What measured Growth Rate is associated with "Cc1nc2sccn2c(=O)c1CCN1CCC(=C(c2ccc(F)cc2)c2ccc(F)cc2)CC1" on HEK-293T?
0

###

- Tested on: Fibroblast
- experiment-summary: Multiplex assay against human fibroblast
- Assay type: toxicity, cell-based
- condition-context: 24 h, 10 µM, compound concentration 10 uM, replicate 2
quantity-name: Population Pyknosed Nuclei (%)
Return type: number; implicit unit %.

compound: COc1cc2c(Nc3ccc(NC(=O)c4ccccc4)cc3)ncnc2cc1OCCCN1CCOCC1
tested-target: Fibroblast
quantity-name: Population Pyknosed Nuclei (%)
u: %
observed-value: 5

compound: Cc1cc2c(cc1N1C(=O)c3cccc4c(CCCO)ccc(c34)C1=O)n(C)c(=O)n2C
tested-target: Fibroblast
quantity-name: Population Pyknosed Nuclei (%)
u: %
observed-value: 18

compound: Cl.Cl.Nc1ncnc2c1c(-c1cccc(OCc3ccccc3)c1)cn2[C@H]1C[C@@H](CN2CCC2)C1
tested-target: Fibroblast
quantity-name: Population Pyknosed Nuclei (%)
u: %
observed-value: 42

Attention now shifts to the item below.
Looking for the measured Population Pyknosed Nuclei (%) of "Nc1ccc(C(=O)Nc2cccc(-c3nc(N4CCOCC4)c4oc5ncccc5c4n3)c2)cn1" , can you help?
34
